tested on: B. fragilis; assay: MIC against human gut microbiota; format: cell-based, Bacteroides fragilis; settings: Bacteroides fragilis, B. fragilis HM- 709, BHIS broth, anaerobic; read-out: minimum inhibitory concentration (MIC)
Structures can show the parent of a compound that is named as a salt.
readout kind: MIC

# input Supply measured MIC of N=C(N/N=C/c1ccc(Cl)cc1)N/N=C/c1ccc(Cl)cc1 [Robenidine hydrochloride] in your reply.
# output ≤ 2 µg/mL

# input Give the measured MIC for CCc1c(Cl)c(O)c(Cl)c(O)c1C(=O)O[C@H]1[C@H](O)[C@H](OC)[C@H](OC/C2=C\C=C\C[C@H](O)/C(C)=C/[C@H](CC)[C@@H](O[C@@H]3OC(C)(C)[C@@H](OC(=O)C(C)C)[C@H](O)[C@@H]3O)/C(C)=C/C(C)=C/C[C@@H]([C@@H](C)O)OC2=O)O[C@@H]1C
# output > 256 µg/mL

# input Please report the measured MIC for COc1cc2c(cc1O)CCN[C@]21CS[C@@H]2c3c(OC(C)=O)c(C)c4c(c3[C@H](COC1=O)N1[C@@H]2[C@H]2c3c(cc(C)c(OC)c3O)C[C@@H]([C@@H]1C#N)N2C)OCO4
# output ≤ 2 µg/mL

Turning now to a further compound:
# input Indicate its recorded MIC; the compound in question is Cc1ccc2c(Cl)cc(Cl)c(O)c2n1
# output ≤ 2 µg/mL

The values you see were collected from paper PMC11288027.
